// reported Activity for each item listed
# System: Staphylococcus aureus
# Assay notes: Potentiation of vancomycin-mediated reduction in CFU per biofilm of Staphylococcus aureus Mu50 preincubated with compound at 100 uM for 20 hrs followed by vancomycin addition measured after 24 hrs (reference value: 30 +/- 14%)
# Assay type: functional
# Parameters: scale not given: the % may be the effect or the level left
Note: unit % is implicit; provide only the numeric part.

Consider the worked cases shown below.
- Molecule: "CS(=O)(=O)NC[C@H]1OC[C@@](O)(CNC(=O)c2ccccc2)[C@@H]1O"
  Numeric readout: 69
- Molecule: "O=C(NC[C@]1(O)CO[C@H](CNC(=O)c2ccccc2OC(F)F)[C@H]1O)c1ccccc1"
  Numeric readout: 81
- Molecule: "O=C(NC[C@]1(O)CO[C@H](CNCc2ccccc2)[C@H]1O)c1ccccc1"
  Numeric readout: 81
- Molecule: "O=C(NC[C@]1(O)CO[C@H](CNC(=O)c2ccccc2OC(F)(F)F)[C@H]1O)c1ccccc1"
  Numeric readout: 78
- Molecule: "O=C(NC[C@]1(O)CO[C@H](CNS(=O)(=O)c2ccccc2Cl)[C@H]1O)c1ccccc1"
  Numeric readout: 65
- Molecule: "O=C(NC[C@]1(O)CO[C@H](CNS(=O)(=O)C(F)(F)F)[C@H]1O)c1ccccc1"
  Numeric readout: 71
- Molecule: "O=C(NC[C@@H]1OC[C@@](O)(CNC(=O)c2ccccc2)[C@@H]1O)c1ccccc1"
  Numeric readout: 48
- Molecule: "CCS(=O)(=O)NC[C@H]1OC[C@@](O)(CNC(=O)c2ccccc2)[C@@H]1O"
  Numeric readout: 49

Value of Activity reported for the molecule "Cc1ccc(S(=O)(=O)NC[C@H]2OC[C@@](O)(CNC(=O)c3ccccc3)[C@@H]2O)cc1" is 83

Value of Activity reported for the molecule "O=C(NC[C@H]1OC[C@@](O)(CNC(=O)c2ccccc2)[C@@H]1O)c1ccccc1" is 66

Value of Activity reported for the molecule "O=C(NC[C@]1(O)CO[C@H](CNS(=O)(=O)c2ccccc2)[C@H]1O)c1ccccc1" is 78

Value of Activity reported for the molecule "O=C(NC[C@]1(O)CO[C@H](Cn2cc(-c3ccccc3)nn2)[C@H]1O)c1ccccc1" is 46

Value of Activity reported for the molecule O=C(OC[C@H]1OC(O)[C@@](O)(COC(=O)c2cc(O)c(O)c(O)c2)[C@@H]1O)c1cc(O)c(O)c(O)c1 (stereo partly drawn) is 57

Value of Activity reported for the molecule "O=C(NC[C@]1(O)CO[C@H](CNS(=O)(=O)c2ccc(Cl)cc2)[C@H]1O)c1ccccc1" is 86

Value of Activity reported for the molecule "CC(C)S(=O)(=O)NC[C@H]1OC[C@@](O)(CNC(=O)c2ccccc2)[C@@H]1O" is 72

Value of Activity reported for the molecule "O=C(NC[C@]1(O)CO[C@H](Cn2nncc2-c2ccccc2)[C@H]1O)c1ccccc1" is 53

Value of Activity reported for the molecule "O=C(NC[C@]1(O)CO[C@H](CNC(=O)c2ccccc2Br)[C@H]1O)c1ccccc1" is 96

Value of Activity reported for the molecule "O=C(NC[C@H]1OC[C@@](O)(CNC(=O)c2ccccc2)[C@@H]1O)Nc1ccccc1" is 76

====

# System: Staphylococcus aureus
# Assay notes: Potentiation of vancomycin-mediated reduction in CFU per biofilm of Staphylococcus aureus Mu50 after 24 hrs
# Assay type: functional, organism-based
# Run conditions: Mu50, 24 h
Assay metric: EC50
// unit must come after the numeric part

Consider the worked cases shown below.
- Compound: "O=C(OC[C@H]1OC(O)[C@@](O)(COC(=O)c2cc(O)c(O)c(O)c2)[C@@H]1O)c1cc(O)c(O)c(O)c1 (stereo partly drawn) [HAMAMELITANNIN]"
  Assay system: "Staphylococcus aureus"
  EC50: "165 µM"
- Compound: "O=C(NC[C@]1(O)CO[C@H](CNC(=O)c2ccccc2Cl)[C@H]1O)c1ccccc1"
  Assay system: "Staphylococcus aureus"
  EC50: "0.389 µM"

Here's the next entry for you.
Item "CN(C[C@H]1OC[C@@](O)(CNC(=O)c2ccccc2)[C@@H]1O)C(=O)c1ccccc1" was tested on Staphylococcus aureus; the reported EC50 is 24.3 µM

====

# Test system: Staphylococcus aureus
# Assay notes: Growth inhibition of Staphylococcus aureus Mu50 after 20 hrs by broth microdilution method
# Assay type: organism-based
# Run conditions: in vitro
// reported MIC for each item listed

Consider the worked cases shown below.
- Compound: "O=C(OC[C@H]1OC(O)[C@@](O)(COC(=O)c2cc(O)c(O)c(O)c2)[C@@H]1O)c1cc(O)c(O)c(O)c1 (some centres undefined)"
  Assay metric: "MIC"
  Result: "> 500 µM"
- Compound: "O=C(NC[C@@H]1OC[C@@](O)(CNC(=O)c2ccccc2)[C@@H]1O)c1ccccc1"
  Assay metric: "MIC"
  Result: "> 500 µM"
- Compound: "O=C(NC[C@]1(O)CO[C@H](Cn2cc(-c3ccccc3)nn2)[C@H]1O)c1ccccc1"
  Assay metric: "MIC"
  Result: "> 500 µM"

Value of MIC reported for the compound "O=C(NC[C@]1(O)CO[C@H](CNC(=O)c2ccccc2I)[C@H]1O)c1ccccc1" is > 500 µM

Value of MIC reported for the compound "O=C(NC[C@]1(O)CO[C@H](CNC(=S)Nc2ccccc2)[C@H]1O)c1ccccc1" is > 500 µM

Value of MIC reported for the compound "Cc1ccc(S(=O)(=O)NC[C@H]2OC[C@@](O)(CNC(=O)c3ccccc3)[C@@H]2O)cc1" is > 500 µM

Value of MIC reported for the compound "O=C(NC[C@]1(O)CO[C@H](CNS(=O)(=O)c2ccc(-c3ccccc3)cc2)[C@H]1O)c1ccccc1" is > 500 µM

Value of MIC reported for the compound "O=C(NC[C@]1(O)CO[C@H](CNS(=O)(=O)c2ccccc2Cl)[C@H]1O)c1ccccc1" is > 500 µM

Value of MIC reported for the compound "O=C(NC[C@]1(O)CO[C@H](CN2Cc3ccccc3C2=O)[C@H]1O)c1ccccc1" is > 500 µM
